Biological target: human MN protein, entire extra-cellular domain with a C-terminal histag, expressed in HKB-11 cells (human, UniProt Q16790 38-414)
Assay: BIAcore surface plasmon resonance; Fab captured on immobilized anti-human-Fab IgG, purified human MN (HKB-11) as analyte; 1:1 Langmuir fit
measurement label: Kd (nM)
A number alone suffices; assume nM.

binder: 1e4 Fab (Fab, V domains shown, Only CDRs are tied to the name) VH: ELVESGGGLVQPGGSLRLSCAASGFTFSNNAMNWVRQAPGKGLEWVSGISYDSSKTYYADSVKGRFTISRDNSKNTLYLQMNSLRAEDTAVYYCARLTYTGAYRWGQGTLVTVSS VL: DIELTQPPSVSVAPGQTARISCSGDNLGSYYVHWYQQKPGQAPVLVIYDDNNRPSGIPERFSGSNSGNTATLTISGTQAEDEADYYCQSYDFGKVVFGGGTKLTVL
recorded number: 1.4
//
binder: 3ah10 Fab (Fab, V domains shown, Only CDRs are tied to the name) VH: ELVESGGGLVQPGGSLRLSCAASGFTFSSYGISWVRQAPGKGLEWVSSISYSGSNTYYADSVKGRFTISRDNSKNTLYLQMNSLRAEDTAVYYCARMKPMRGYSGAVWGQGTLVTVSS VL: DIQMTQSPSSLSASVGDRVTITCRASQDISNRLAWYQQKPGKAPKLLIYDANSLQSGVPSRFSGSGSGTDFTLTISSLQPEDFATYYCFQYSGPTFGQGTKVEIK
recorded number: 16

With those in mind, consider the next binder.
Entry under review: 3ef2 Fab (Fab, V domains shown, Only CDRs are tied to the name) VH: ELVESGGGLVQPGGSLRLSCAASGFTFSSYGMHWVRQAPGKGLEYVSAISYSSSSTSYADSVKGRFTISRDNSKNTLYLQMNSLRAEDTAVYYCARLSYTGFAVWGQGTLVTVSS VL: DIELTQPPSVSVAPGQTARISCSGDNLGSYYVHWYQQKPGQAPVLVIYDDNNRPSGIPERFSGSNSGNTATLTISGTQAEDEADYYCQSYDFGKVVFGGGTKLTVL . Reported Kd? 4.1
